Values from patent US20260184782A1

Listed below: koff values for each entry.
Biological target: T1, TIGIT (UniProt Q495A1 22-141, limits assumed)
T1 construct: also called T cell immunoreceptor with Ig and ITIM domains; hTIGIT
T1 sequence (looked up): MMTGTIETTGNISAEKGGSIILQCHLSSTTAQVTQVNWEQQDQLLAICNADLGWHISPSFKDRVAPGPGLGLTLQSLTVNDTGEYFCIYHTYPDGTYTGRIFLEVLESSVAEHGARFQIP
Experiment: SPR (Carterra)
Measured quantity: koff (s⁻¹)

| Binder | Measured quantity | Unit tag | Result value |
| --- | --- | --- | --- |
| TIGIT-211-43 (antibody, V domains shown) VH: EVQLLESGGGLVQPGGSLRLSCAASGFTFYDYTMDWVRQAPGKGLEWVSAISGSGGGTSYADSVKGRFTISRDNSKNTLYLQMNSLRAEDTAVYYCARRHWPGGFDYWGQGTLVTVSS VL: DIQMTQSPSSLSASVGDRVTITCRASQSIRRYLNWYQQKPGKAPKLLIYWASDRESGVPSRFSGSGSGTDFTLTISSLQPEDFATYYCQQSFSTPLTFGQGTKVEIK | koff | s⁻¹ | 0.00117 |
| TIGIT-211-17 (antibody, V domains shown) VH: EVQLLESGGGLVQPGGSLRLSCAASGFTFAEYSMNWVRQAPGKGLEWVSWISPHGALTYYADSVKGRFTISRDNSKNTLYLQMNSLRAEDTAVYYCARSYGGGFDYWGQGTLVTVSS VL: DIQMTQSPSSLSASVGDRVTITCRASQTIERRLNWYQQKPGKAPKLLIYQNDKRPSGVPSRFSGSGSGTDFTLTISSLQPEDFATYYCQQSYSIPPTFGQGTKVEIK | koff | s⁻¹ | 0.126 |
| TIGIT-211-57 (antibody, V domains shown) VH: EVQLLESGGGLVQPGGSLRLSCAASGLTFPNYGMGWVRQAPGKGLEWVSAISREGRATYYADSVKGRFTISRDNSKNTLYLQMNSLRAEDTAVYYCARVIAAAGAFDYWGQGTLVTVSS VL: DIQMTQSPSSLSASVGDRVTITCRSSQSLVHSTGNTYLHWYQQKPGKAPKLLIYGKNIRPSGVPSRFSGSGSGTDFTLTISSLQPEDFATYYCQQSYTTPWTFGQGTKVEIK | koff | s⁻¹ | 0.105 |
| TIGIT-211-18 (antibody, V domains shown) VH: EVQLLESGGGLVQPGGSLRLSCAASGFTFGTIPMSWVRQAPGKGLEWVGVIWGGGGTYYADSVKGRFTISRDNSKNTLYLQMNSLRAEDTAVYYCAKAHGNPVSDLSFDYWGQGTLVTVSS VL: DIQMTQSPSSLSASVGDRVTITCSGDKLGDKYTSWYQQKPGKAPKLLIYHTSRLQDGVPSRFSGSGSGTDFTLTISSLQPEDFATYYCQQSYNLPLTFGQGTKVEIK | koff | s⁻¹ | 0.000832 |
| TIGIT-211-42 (antibody, V domains shown) VH: EVQLLESGGGLVQPGGSLRLSCAASGFTFNHYGMGWVRQAPGKGLEWVSYISSSGSSTYYADSVKGRFTISRDNSKNTLYLQMNSLRAEDTAVYYCAKGWLGNFDYWGQGTLVTVSS VL: DIQMTQSPSSLSASVGDRVTITCRASQGVRTSLAWYQQKPGKAPKLLIYGKNIRPSGVPSRFSGSGSGTDFTLTISSLQPEDFATYYCQQSYSFPLTFGQGTKVEIK | koff | s⁻¹ | 0.000643 |
